Item-by-item account of IC50
tested on: HepG2; assay: Cytotoxicity against human HEPG2 cells after 48 hrs by MTT colorimetric assay; format: cell-based; settings: HepG2, 48 h

{"MOLECULE": "C/C=C(/C)C(=O)OC1CC[C@@H]2CC(=O)C(C(C)C(=O)OC)=C[C@]2(C)C1C(=O)OC (stereo not given in full)", "VALUE_UNIT": "µM", "VALUE_COMPARATOR": ">", "IC50": 100}
{"MOLECULE": "CO[C@]12C[C@H]3CCC=C4C(=O)O[C@@H](C1=C(C)C(=O)O2)[C@]43C", "VALUE_UNIT": "µM", "VALUE_COMPARATOR": "=", "IC50": 12.7}
{"MOLECULE": "CCO[C@]12C[C@H]3CCC=C4C(=O)O[C@@H](C1=C(C)C(=O)O2)[C@]43C", "VALUE_UNIT": "µM", "VALUE_COMPARATOR": "=", "IC50": 40.5}
{"MOLECULE": "CC1=C2[C@@H]3OC(=O)C4=CCC[C@H](C[C@]2(O)OC1=O)[C@@]43C", "VALUE_UNIT": "µM", "VALUE_COMPARATOR": ">", "IC50": 100}
{"MOLECULE": "COC(=O)C1=CCC[C@@H]2CC(C(C)=O)=C[C@]12C", "VALUE_UNIT": "µM", "VALUE_COMPARATOR": "=", "IC50": 46.5}
